- protocol-description: Half life in human liver microsomes at 2 uM
- Format: ADME
Overview of reported half-life at 2 µM across a group of molecules:
Field: numeric (h). Do not append units.

Study these solved cases before continuing.
- structure: "CCOc1nc(NC(=O)C(C)(C)NC(=O)c2ccc3c(c2)c(C)c(-c2ccc(F)cn2)n3C2CCCCC2)cnc1/C=C/C(=O)O"
  half-life at 2 µM / h: 1.57
- structure: "CCOc1nc(NC(=O)C2(NC(=O)c3ccc4c(C5CCCC5)c(-c5cnccn5)n(C)c4c3)CCC2)ccc1/C=C/C(=O)O"
  half-life at 2 µM / h: 0.55
- structure: "CCOc1nc(NC(=O)C(C)(C)NC(=O)c2ccc3c(C4CCCC4)c(-c4cncnc4)n(C)c3c2)ccc1/C=C/C(=O)O"
  half-life at 2 µM / h: 1.15
- structure: "CCOc1nc(NC(=O)C2(NC(=O)c3ccc4c(C5CCCC5)c(-c5ccc(Cl)cn5)n(C)c4c3)CCC2)ccc1/C=C/C(=O)O"
  half-life at 2 µM / h: 2.78

Prompt: May I ask what half-life at 2 µM has been recorded for `CCOc1nc(NC(=O)C2(NC(=O)c3ccc4c(C5CCCC5)c(-c5ccccn5)n(C)c4c3)CCC2)ccc1/C=C/C(=O)O` ?
Completion: 0.667

Prompt: Give the measured half-life at 2 µM of `CCOc1nc(NC(=O)C2(NC(=O)c3ccc4c(C5CCCC5)c(-c5ccc(F)cn5)n(C)c4c3)CCC2)ccc1/C=C/C(=O)O` .
Completion: 1.37

Prompt: I have this molecule here, `CCOc1nc(NC(=O)C2(NC(=O)c3ccc4c(C5CCCC5)c(-c5ncc(Cl)cn5)n(C)c4c3)CCC2)ccc1/C=C/C(=O)O` , and I need its recorded half-life at 2 µM.
Completion: 1.1

Prompt: Looking for the measured half-life at 2 µM of `CCOc1nc(NC(=O)C2(NC(=O)c3ccc4c(C5CCCC5)c(-c5ccccn5)n(C)c4c3)CCC2)cnc1/C=C/C(=O)O` , can you help?
Completion: 1.78

Prompt: Reported half-life at 2 µM for `CCOc1nc(NC(=O)C(C)(C)NC(=O)c2ccc3c(C4CCCC4)c(-c4ccc(Cl)cn4)n(C)c3c2)cnc1/C=C/C(=O)O` : what is it?
Completion: 4.6

Prompt: Would you mind telling me what half-life at 2 µM value was observed for `COc1nc(NC(=O)C2(NC(=O)c3ccc4c(C5CCCC5)c(-c5ccccn5)n(C)c4c3)CCC2)ccc1/C=C/C(=O)O` ?
Completion: 1.27

###

logD for assorted compounds
- protocol-description: Lipophilicity, log D of the compound at pH 7.4
- Assay type: physicochemical
- test-conditions: buffer

These solved cases illustrate the format of a correct answer.
- structure: "CCOc1nc(NC(=O)C2(NC(=O)c3ccc4c(C5CCCC5)c(-c5ncc(Cl)cn5)n(C)c4c3)CCCC2)ccc1/C=C/C(=O)O"
  measure: "logD"
  value: "> 6.2"
- structure: "CCOc1nc(NC(=O)C2(NC(=O)c3ccc4c(C5CCCC5)c(-c5ccc(Cl)cn5)n(C)c4c3)CCCC2)ccc1/C=C/C(=O)O"
  measure: "logD"
  value: "> 5.5"

Now look at this one.
Prompt: Which logD value belongs to `CCOc1nc(NC(=O)C(C)(C)NC(=O)c2ccc3c(C4CCCC4)c(-c4ncc(Br)cn4)n(C)c3c2)ccc1/C=C/C(=O)O` ?
Completion: > 4.7

###

Reported pEC50 values follow for various compounds
- Tested on: Hepatitis C virus
- protocol-description: Antiviral activity against Hepatitis C virus genotype 1b infected in human Huh cells assessed as inhibition of viral replication by RT-PCR-based replicon assay
- Format: functional, cell-based, Hepacivirus hominis
// pEC50 is dimensionless: -log10 of concentration (M)

- structure: "CCOc1nc(NC(=O)C(C)(C)NC(=O)c2ccc3c(c2)c(C)c(-c2ccc(F)cn2)n3C2CCCCC2)ccc1/C=C/C(=O)O"
  value: 8.52
- structure: "CCOc1nc(NC(=O)C2(NC(=O)c3ccc4c(C5CCCC5)c(-c5ccc(F)cn5)n(C)c4c3)CCCC2)ccc1/C=C/C(=O)O"
  value: 8.40
- structure: "COc1nc(NC(=O)C(C)(C)NC(=O)c2ccc3c(C4CCCC4)c(-c4ccccn4)n(C)c3c2)cnc1/C=C/C(=O)O"
  value: 7.30

Prompt: What value of measured pEC50 is listed for `COc1nc(NC(=O)C(C)(C)NC(=O)c2ccc3c(C4CCCC4)c(-c4ccc(Cl)cn4)n(C)c3c2)cnc1/C=C/C(=O)O` ?
Completion: 7.36

Prompt: Form field: reported pEC50 of `CCOc1nc(NC(=O)C2(NC(=O)c3ccc4c(C5CCCC5)c(-c5ccc(F)cn5)n(C)c4c3)CCCC2)cnc1/C=C/C(=O)O`
Completion: 7.96

Prompt: Bench note: what pEC50 did `CCOc1nc(NC(=O)C2(NC(=O)c3ccc4c(C5CCCC5)c(-c5ncc(Cl)cn5)n(C)c4c3)CCCC2)ccc1/C=C/C(=O)O` show?
Completion: 8.52

###

- System: Hepatitis C virus
- protocol-description: Antiviral activity against Hepatitis C virus genotype 1b infected in human Huh cells assessed as inhibition of viral replication by RT-PCR-based replicon assay
- Type: functional, cell-based, Hepacivirus hominis
measure: pEC50
// pEC50: -log10(molar conc.)

Before answering, review these 3 worked examples.
- structure: "COc1nc(NC(=O)C2(NC(=O)c3ccc4c(C5CCCC5)c(-c5ccc(Cl)cn5)n(C)c4c3)CCC2)ccc1/C=C/C(=O)O"
  pEC50: 7.89
- structure: "COc1nc(NC(=O)C2(NC(=O)c3ccc4c(C5CCCC5)c(-c5ncc(Br)cn5)n(C)c4c3)CCC2)ccc1/C=C/C(=O)O"
  pEC50: 8.05
- structure: "CCOc1nc(NC(=O)C2(NC(=O)c3ccc4c(C5CCCC5)c(-c5ccccn5)n(C)c4c3)CCC2)cnc1/C=C/C(=O)O"
  pEC50: 7.89

Prompt: Missing value: pEC50, Hepatitis C virus, entry `COc1nc(NC(=O)C2(NC(=O)c3ccc4c(C5CCCC5)c(-c5ccc(F)cn5)n(C)c4c3)CCC2)ccc1/C=C/C(=O)O` . Fill in?
Completion: 7.92

###

- protocol-description: Lipophilicity, log D of the compound at pH 7.4
- Assay type: physicochemical
- test-conditions: buffer
Tick class 1 if logD is 4 or greater. Tick class 0 if logD is less than 4.

Here are 2 compounds together with their reported answers.
- structure: "COc1nc(NC(=O)C2(NC(=O)c3ccc4c(C5CCCC5)c(-c5cnccn5)n(C)c4c3)CCC2)ccc1/C=C/C(=O)O"
  class: "class 0"
- structure: "CCOc1nc(NC(=O)C2(NC(=O)c3ccc4c(C5CCCC5)c(-c5ccccn5)n(C)c4c3)CCC2)ccc1/C=C/C(=O)O"
  class: "class 1"

Turning now to a further compound:
Prompt: Hi, just wondering whether `CCOc1nc(NC(=O)C2(NC(=O)c3ccc4c(C5CCCC5)c(-c5ncc(Cl)cn5)n(C)c4c3)CCCC2)cnc1/C=C/C(=O)O` shows logD of 4 or higher.
Completion: class 1

###

- Tested on: Hepatitis C virus
- protocol-description: Antiviral activity against Hepatitis C virus genotype 1b infected in human Huh cells assessed as inhibition of viral replication by RT-PCR-based replicon assay
- Type: functional, cell-based, Hepacivirus hominis
measure: EC50 (nM)
Respond with the bare value in nM.

Solved cases (8 shown):
- structure: "CCOc1nc(NC(=O)C2(NC(=O)c3ccc4c(C5CCCC5)c(-c5ccc(F)cn5)n(C)c4c3)CCC2)ccc1/C=C/C(=O)O"
  study-system: "Hepatitis C virus"
  measure: "EC50"
  unit-info: "nM"
  value: 10
- structure: "CCOc1nc(NC(=O)C2(NC(=O)c3ccc4c(C5CCCC5)c(-c5ccccn5)n(C)c4c3)CCCC2)cnc1/C=C/C(=O)O"
  study-system: "Hepatitis C virus"
  measure: "EC50"
  unit-info: "nM"
  value: 16
- structure: "CCOc1nc(NC(=O)C2(NC(=O)c3ccc4c(C5CCCC5)c(-c5ccc(Cl)cn5)n(C)c4c3)CCC2)cnc1/C=C/C(=O)O"
  study-system: "Hepatitis C virus"
  measure: "EC50"
  unit-info: "nM"
  value: 53
- structure: "CCOc1nc(NC(=O)C2(NC(=O)c3ccc4c(c3)c(C)c(-c3ccc(F)cn3)n4C3CCCCC3)CCCC2)cnc1/C=C/C(=O)O"
  study-system: "Hepatitis C virus"
  measure: "EC50"
  unit-info: "nM"
  value: 6
- structure: "CCOc1nc(NC(=O)C(C)(C)NC(=O)c2ccc3c(c2)c(C)c(-c2ccc(F)cn2)n3C2CCCCC2)cnc1/C=C/C(=O)O"
  study-system: "Hepatitis C virus"
  measure: "EC50"
  unit-info: "nM"
  value: 12
- structure: "COc1nc(NC(=O)C2(NC(=O)c3ccc4c(c3)c(C)c(-c3ccc(F)cn3)n4C3CCCCC3)CCCC2)cnc1/C=C/C(=O)O"
  study-system: "Hepatitis C virus"
  measure: "EC50"
  unit-info: "nM"
  value: 14
- structure: "COc1nc(NC(=O)C(C)(C)NC(=O)c2ccc3c(C4CCCC4)c(-c4ccccn4)n(C)c3c2)ccc1/C=C/C(=O)O"
  study-system: "Hepatitis C virus"
  measure: "EC50"
  unit-info: "nM"
  value: 21
- structure: "CCOc1nc(NC(=O)C2(NC(=O)c3ccc4c(C5CCCC5)c(-c5ncc(Br)cn5)n(C)c4c3)CCC2)ccc1/C=C/C(=O)O"
  study-system: "Hepatitis C virus"
  measure: "EC50"
  unit-info: "nM"
  value: 12

Prompt: Look up EC50: `COc1nc(NC(=O)C2(NC(=O)c3ccc4c(C5CCCC5)c(-c5cncnc5)n(C)c4c3)CCCC2)cnc1/C=C/C(=O)O`
Completion: 575

Prompt: For the compound `CCOc1nc(NC(=O)C(C)(C)NC(=O)c2ccc3c(C4CCCC4)c(-c4ncc(Cl)cn4)n(C)c3c2)ccc1/C=C/C(=O)O` , what EC50 is on record?
Completion: 6
